Tested on: SNB-19 CNS
Experiment: NCI-60 one-dose screen, 48 h (100 = growth as untreated, 0 = no growth, -100 = all killed)
Conditions: 10 µM unless noted
About 83,000 compounds went through this panel and 20% of them were active in at least one assay; those are over-represented in the sample as a whole.
Values of growth strictly less than 70% map to Fulfilled, and values of at least 70% map to Not fulfilled.

Reference set, count: 3
1) CC1=C(C(=O)c2ccccc2)C(c2ccc(-n3cncn3)cc2)n2c(nc3ccccc32)N1 (stereo not given)	Not fulfilled
2) COc1cc(-c2cc(-c3cccc(OCC(=O)O)c3)[nH]c(=O)c2C#N)cc(OC)c1OC	Not fulfilled
3) O=C(/C=C/c1ccc(-c2ccccc2)cc1)c1nc2ccccc2n1Cc1ccc(F)cc1	Fulfilled

Now, please, on to the next compound.
Threshold test, growth < 70%: "COc1ccc(C(=O)/C=C/c2c(F)cccc2Cl)cc1S(N)(=O)=O"
Fulfilled
